- Test system: 7G8
- test-name: qHTS profiling for inhibitors of Plasmodium falciparum proliferation (AID 504749); note: nearly all actives have a fitted effect of over 60% in size
- test-conditions: P. falciparum in erythrocytes, SYBR Green DNA, 72 h; series mostly up to 28.7 µM
Results filed as inconclusive are left out. Calls of active or inactive are those of the source. Calls come from the whole dose curve; as a rule, active = well fitted inhibition curve with a large enough effect; inconclusive = small, poorly fitted or top-dose-only effect; inactive = flat fitted curve, though single readings scatter.
Allowed answers: t (active), f (inactive)

[
  {
    "compound": "NCCc1cnc[nH]1",
    "label-value": "f"
  },
  {
    "compound": "Cc1cn([C@H]2C[C@H](N=[N+]=[N-])[C@@H](CO)O2)c(=O)[nH]c1=O",
    "label-value": "f"
  },
  {
    "compound": "CC(C)NCC(O)COc1ccc(CCOCC2CC2)cc1 (configuration not stated)",
    "label-value": "t"
  },
  {
    "compound": "CN(C)CCC=C1c2ccccc2C=Cc2ccccc21",
    "label-value": "t"
  },
  {
    "compound": "O=c1c(-c2ccc(O)cc2)coc2cc(O)cc(O)c12",
    "label-value": "f"
  },
  {
    "compound": "Cn1c(=O)c2[nH]cnc2n(C)c1=O",
    "label-value": "f"
  }
]

Hey, what did the test say about "CC(=O)OCC(CCn1cnc2cnc(N)nc21)COC(C)=O" ?
f

Hey, what did the test say about "CS(=O)(=O)CCNCc1ccc(-c2ccc3ncnc(Nc4ccc(OCc5cccc(F)c5)c(Cl)c4)c3c2)o1" ?
f

Hey, what did the test say about "O=C1c2c(O)ccc(O)c2C(=O)c2c(NCCNCCO)ccc(NCCNCCO)c21" ?
t

Hey, what did the test say about "COc1nc(C)nc(Cl)c1NC1=NCCN1" ?
f

Hey, what did the test say about CC(C)Cc1ccc(C(C)C(=O)O)cc1 (configuration not stated) ?
f

Hey, what did the test say about COc1ccccc1OCC(O)CN1CCN(CC(=O)Nc2c(C)cccc2C)CC1 (configuration not stated) ?
f

----------
- Tested on: CP268
- test-name: qHTS profiling for inhibitors of Plasmodium falciparum proliferation (AID 504749); note: nearly all actives have a fitted effect of over 60% in size
- test-conditions: P. falciparum in erythrocytes, SYBR Green DNA, 72 h; series mostly up to 28.7 µM
- Procedure: NIH National Institute of Allergy and Infectious Diseases [NIAID] NIH Chemical Genomics Center [NCGC] […] Because mature erythrocytes lack DNA, only Plasmodium-derived DNA is detected. NCGC Assay Protocol Summary: The SYBR Green viability assay was adapted from a method described previously (Plouffe et al., 2008). […] The following morning, fluorescence intensity at 485(14) nm excitation and 535(25) nm emission wavelengths was measured on an EnVision (Perkin Elmer) plate reader. […]
Records with an inconclusive call do not appear. The source made the active and inactive calls. Calls come from the whole dose curve; as a rule, active = well fitted inhibition curve with a large enough effect; inconclusive = small, poorly fitted or top-dose-only effect; inactive = flat fitted curve, though single readings scatter.
Allowed answers: TRUE = active, FALSE = inactive

# count of solved cases: 2
[
  {
    "compound": "NCCS(=O)(=O)O",
    "study-target": "CP268",
    "label-value": "FALSE"
  },
  {
    "compound": "OCCN1CCN(CCCN2c3ccccc3Sc3ccc(C(F)(F)F)cc32)CC1",
    "study-target": "CP268",
    "label-value": "TRUE"
  }
]

Hey, what did the test say about "CC(C)(C)C(=O)Oc1ccc(S(=O)(=O)Nc2ccccc2C(=O)NCC(=O)O)cc1" ?
FALSE

Hey, what did the test say about CC(CCc1ccc(O)cc1)NCCc1ccc(O)c(O)c1 (stereo not drawn) ?
FALSE

Hey, what did the test say about CC(C)(Oc1ccc(C2CC2(Cl)Cl)cc1)C(=O)O (stereo not drawn) ?
FALSE

Hey, what did the test say about "O=c1c(-c2ccc(O)cc2)coc2cc(O)cc(O)c12" ?
FALSE

Hey, what did the test say about CC(C)Cc1ccc(C(C)C(=O)O)cc1 (stereo not drawn) ?
FALSE

Hey, what did the test say about "Cn1cnc2c1c(=O)[nH]c(=O)n2C" ?
FALSE

Hey, what did the test say about "CCOC(=O)c1ncn2c1CN(C)C(=O)c1cc(F)ccc1-2" ?
FALSE

Hey, what did the test say about CN1CCN2c3ccccc3Cc3ccccc3C2C1 (stereo not drawn) ?
FALSE

Hey, what did the test say about "Clc1ccc2nsnc2c1NC1=NCCN1" ?
FALSE

Hey, what did the test say about "CCOC(=O)C(C)(C)Oc1ccc(Cl)cc1" ?
FALSE

Hey, what did the test say about "C[C@](N)(Cc1ccc(O)c(O)c1)C(=O)O" ?
FALSE

----------
- test-name: qHTS of pediatric cancer cell lines to identify multiple opportunities for drug repurposing: Confirmatory screen for RD cells (AID 1347124);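 note: cells exposed to compound for 48 h before viability readout; nearly all actives have a fitted effect of over 65% in size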
- test-conditions: RD rhabdomyosarcoma cell viability; series mostly up to 45.9 µM
Records with an inconclusive call do not appear. Calls of active or inactive are those of the source. The call rests on the fitted dose curve; in most records, active means well fitted cell-killing curve with a large enough effect; inconclusive means small, poorly fitted or top-dose-only effect, or effect the other way; inactive means no such curve, though single readings can be large or run the other way.
Allowed answers: active, inactive

[
  {
    "compound": "NC(=O)NO",
    "label-value": "inactive"
  },
  {
    "compound": "COC(=O)Nc1nc2ccc(C(=O)c3cccs3)cc2[nH]1",
    "label-value": "active"
  },
  {
    "compound": "CC#C[C@]1(O)CC[C@H]2[C@@H]3CCC4=CC(=O)CCC4=C3[C@@H](c3ccc(N(C)C)cc3)C[C@@]21C",
    "label-value": "inactive"
  },
  {
    "compound": "CC(C)NCC(O)c1ccc(O)c(O)c1 (stereo unspecified)",
    "label-value": "inactive"
  }
]

Hey, what did the test say about "O=C1c2c(O)ccc(O)c2C(=O)c2c(NCCNCCO)ccc(NCCNCCO)c21" ?
active

Hey, what did the test say about "CS(=O)(=O)CCNCc1ccc(-c2ccc3ncnc(Nc4ccc(OCc5cccc(F)c5)c(Cl)c4)c3c2)o1" ?
inactive

----------
- System: PC26
- test-name: qHTS profiling for inhibitors of Plasmodium falciparum proliferation (AID 504749); note: nearly all actives have a fitted effect of over 60% in size
- test-conditions: P. falciparum in erythrocytes, SYBR Green DNA, 72 h; series mostly up to 28.7 µM
Results filed as inconclusive are left out. Active and inactive are the calls of the source. The call rests on the fitted dose curve; in most records, active means well fitted inhibition curve with a large enough effect; inconclusive means small, poorly fitted or top-dose-only effect; inactive means flat fitted curve, though single readings scatter.
Allowed answers: YES (active), NO (inactive)

# count of solved cases: 3
[
  {
    "smiles": "COC(=O)Nc1nc2ccc(C(=O)c3cccs3)cc2[nH]1",
    "label-value": "NO"
  },
  {
    "smiles": "Cc1cc(C(C)(C)C)c(O)c(C)c1CC1=NCCN1",
    "label-value": "NO"
  },
  {
    "smiles": "O=C(c1ccc(F)cc1)C1CCN(CCn2c(=O)[nH]c3ccccc3c2=O)CC1",
    "label-value": "NO"
  }
]

Hey, what did the test say about "NCCCCCC(=O)O" ?
NO

Hey, what did the test say about "CCOC(=O)Nc1ccc(NCc2ccc(F)cc2)nc1N" ?
YES

Hey, what did the test say about "COc1nc(C)nc(Cl)c1NC1=NCCN1" ?
NO

Hey, what did the test say about "NC12CC3CC(CC(C3)C1)C2" ?
NO

----------
- System: N140
- test-name: qHTS profiling for inhibitors of Plasmodium falciparum proliferation (AID 504749); note: nearly all actives have a fitted effect of over 60% in size
- test-conditions: P. falciparum in erythrocytes, SYBR Green DNA, 72 h; series mostly up to 28.7 µM
Inconclusive results are not listed. Active and inactive are the calls of the source. Calls follow the shape of the dose curve; as a rule, active = well fitted inhibition curve with a large enough effect; inconclusive = small, poorly fitted or top-dose-only effect; inactive = flat fitted curve, though single readings scatter.
Allowed answers: 1.0 (active), 0.0 (inactive)

Hey, what did the test say about "O=C(c1ccc(F)cc1)C1CCN(CCn2c(=O)[nH]c3ccccc3c2=O)CC1" ?
0.0

Hey, what did the test say about "Nc1nc2c(ncn2COC(CO)CO)c(=O)[nH]1" ?
0.0

Hey, what did the test say about "Cc1cnc(C(=O)NCCc2ccc(S(=O)(=O)NC(=O)NC3CCCCC3)cc2)cn1" ?
0.0

Hey, what did the test say about "NCCS(=O)(=O)O" ?
0.0

Hey, what did the test say about "Cn1c(=O)c2[nH]cnc2n(C)c1=O" ?
0.0

Hey, what did the test say about "O=c1c(O)c(-c2ccc(O)c(O)c2)oc2cc(O)cc(O)c12" ?
0.0

Hey, what did the test say about CC1(CN2CCC(n3c(=O)[nH]c4ccccc43)CC2)OCc2ccccc2-n2cccc21 (stereo unspecified) ?
1.0

----------
- test-name: Quantitative High-Throughput drug screen in 47 multiple myeloma cell lines against the NCATS MIPE library collection: XG6_PLB cell viability assay (AID 1919865); note: nearly all actives have a fitted effect of over 40% in size
- test-conditions: XG6 myeloma viability, CellTiter-Glo ATP luminescence, 48 h; series mostly up to 45.8 µM
Inconclusive results are not listed. Active and inactive are the calls of the source. Calls come from the whole dose curve; as a rule, active = well fitted cell-killing curve with a large enough effect; inconclusive = small, poorly fitted or top-dose-only effect, or effect the other way; inactive = no such curve, though single readings can be large or run the other way.
Allowed answers: true for active, false for inactive

# count of solved cases: 4
[
  {
    "molecule": "CN(C)CCCN1c2ccccc2CCc2ccc(Cl)cc21",
    "label-value": "true"
  },
  {
    "molecule": "CCc1cccc2c3c([nH]c12)C(CC)(CC(=O)O)OCC3 (stereo not drawn)",
    "label-value": "false"
  },
  {
    "molecule": "Clc1ccc2c(c1)C(N1CCNCC1)=Nc1ccccc1O2",
    "label-value": "false"
  },
  {
    "molecule": "O=C1Cc2cc(CCN3CCN(c4nsc5ccccc45)CC3)c(Cl)cc2N1",
    "label-value": "true"
  }
]

Hey, what did the test say about "Nc1c2c(nc3ccccc13)CCCC2" ?
false

Hey, what did the test say about "OCCN(CCO)c1nc(N2CCCCC2)c2nc(N(CCO)CCO)nc(N3CCCCC3)c2n1" ?
true

Hey, what did the test say about "NC(=O)NO" ?
true

Hey, what did the test say about "CN1CCC(=C2c3ccccc3C=Cc3ccccc32)CC1" ?
true

Hey, what did the test say about "CN1CCN(CCCN2c3ccccc3Sc3ccc(Cl)cc32)CC1" ?
true

Hey, what did the test say about "CC[N+](CC)(CC)CCOc1cccc(OCC[N+](CC)(CC)CC)c1OCC[N+](CC)(CC)CC" ?
false

Hey, what did the test say about "CC(C)C(=O)Nc1ccc([N+](=O)[O-])c(C(F)(F)F)c1" ?
true

The reported numbers originate from PubChem BioAssay (NCATS).
